Test: Approximate solubility by stepwise dilution of a suspension
Type: physicochemical
Settings: organic solvent or mixture, thermodynamic from solid; solvent: DMSO
property.measured: solubility

Request: Complete the entry with solubility for CN[C@]1(c2ccccc2Cl)CCCCC1=O [monohydrate]
Result: 106 to 212 mg/mL

* * *

Experiment: Approximate solubility by stepwise dilution of a suspension
Type: physicochemical
Details: organic solvent or mixture, thermodynamic from solid; solvent: DCM
property.measured: solubility

Request: Quote solubility reported for CN[C@]1(c2ccccc2Cl)CCCCC1=O [monohydrate] please.
Result: 67 to 101 mg/mL

* * *

Test: Solubility in select solvents after 24 hours, filtrate analyzed by HPLC
Format: physicochemical
Conditions: thermodynamic from solid, solvent: demineralized water, 23.6° C.
property.measured: solubility thermodynamic at 24 h (mg/mL)
Record the value in mg/mL, omitting the unit from your answer.

Request: Name the recorded solubility thermodynamic at 24 h of the molecule listed here: CN[C@]1(c2ccccc2Cl)CCCCC1=O [monohydrate]
Result: 53.4
